Molecular target: human recombinant adrenergic α2B receptor (Homo sapiens)
Construct: expressed in transfected cells; host or cells: CHO-K1
Sequence (P18089 whole entry): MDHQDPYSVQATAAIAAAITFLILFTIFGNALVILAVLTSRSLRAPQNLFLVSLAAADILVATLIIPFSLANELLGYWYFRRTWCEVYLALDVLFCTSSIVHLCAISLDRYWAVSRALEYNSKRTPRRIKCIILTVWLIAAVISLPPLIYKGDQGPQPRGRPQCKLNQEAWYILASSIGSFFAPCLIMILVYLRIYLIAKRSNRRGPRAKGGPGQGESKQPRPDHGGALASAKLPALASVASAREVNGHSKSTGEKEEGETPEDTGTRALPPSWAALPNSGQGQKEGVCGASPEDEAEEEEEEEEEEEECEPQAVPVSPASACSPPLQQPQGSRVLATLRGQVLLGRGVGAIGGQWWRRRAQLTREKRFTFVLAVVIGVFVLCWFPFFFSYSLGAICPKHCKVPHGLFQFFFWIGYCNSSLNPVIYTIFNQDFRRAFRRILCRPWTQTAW
Assay: Radioligand binding, adrenergic α2B ([3H]Rauwolscine)
Conditions: compound at 0.03 μM, repeat datapoints each shown, 0.03 µM
ATTRIBUTE_MEASURED: Percentage inhibition of ligand binding, Adrenergic α2B (0.03 μM) (%)
Write the answer as a number in %, unit excluded.

Consider the following illustrative entries.
| COMPOUND | SYSTEM | ASSAY_RESULT |
| --- | --- | --- |
| CCC1c2c(c3cc(C)ccc3n2CC(O)c2ccncc2)C2CCN1C2 (single isomer, unassigned) [36b] | human recombinant adrenergic α2B receptor (Homo sapiens) | −1 |
| OC(Cn1c2c(c3cccnc31)CN1CCCC1C2)c1ccncc1 (single isomer, unassigned) [37c] | human recombinant adrenergic α2B receptor (Homo sapiens) | 0 |
| Cc1ccc2c(c1)c1c(n2CC(O)c2ccccn2)CN(C)CC1 (single isomer, unassigned) [22a] | human recombinant adrenergic α2B receptor (Homo sapiens) | 22 |
| Cc1ccc2c(c1)c1c(n2CC(O)c2ccncc2)CC2CCCN2C1 (single isomer, unassigned) [76b] | human recombinant adrenergic α2B receptor (Homo sapiens) | 34 |

Task item: Form field: reported Percentage inhibition of ligand binding, Adrenergic α2B (0.03 μM) of Cc1ccc2c(c1)c1c(n2CC(O)c2ccncc2)C(C)N2CCC1C2 (single isomer, unassigned) [38a]
Reply: 35

Task item: Can you check CN1CCc2c(c3cccc(Br)c3n2CC(O)c2ccncc2)C1 (single isomer, unassigned) [48b] next?
Reply: 86
